B1: Azoarcus group I ribozyme (parent)
chain: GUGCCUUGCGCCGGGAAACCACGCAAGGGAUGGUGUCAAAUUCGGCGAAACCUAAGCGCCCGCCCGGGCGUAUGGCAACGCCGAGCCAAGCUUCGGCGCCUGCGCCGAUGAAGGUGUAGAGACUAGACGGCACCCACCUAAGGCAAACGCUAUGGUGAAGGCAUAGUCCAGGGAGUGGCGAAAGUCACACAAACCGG

variants of: B1; assay: reverse-splicing fitness (ratio to wild type); higher = more active; in vitro selection; Mg2+ level not given
Class Condition met: reverse-splicing fitness at least 0.007. Class Condition not met: reverse-splicing fitness below 0.007.

{"variant designation": "C82U A120G C169U U176G", "answer label": "Condition not met"}
{"variant designation": "C82G A111G A120C A145U C150A C169A U176G", "answer label": "Condition not met"}
{"variant designation": "C82G A145U C150U C169U", "answer label": "Condition met"}
{"variant designation": "C82U A111U A145U C150U C169A U176C", "answer label": "Condition met"}
{"variant designation": "A120G A145U C150A C169A U176C", "answer label": "Condition met"}
{"variant designation": "A120G C150U C169A", "answer label": "Condition met"}
{"variant designation": "C82U A111G A120G A145U C169A U176C", "answer label": "Condition met"}
{"variant designation": "C82G A111C A120U A145U C169G U176G", "answer label": "Condition not met"}
{"variant designation": "A111G A120C A145C C150G C169A U176G", "answer label": "Condition not met"}
{"variant designation": "A111G A145C U176A", "answer label": "Condition met"}

Now look at this entry.
[Q] Please indicate if the recorded reverse-splicing fitness for A120U A145G U176C meets or exceeds 0.007.
[A] Condition met
